B1: glmS ribozyme (parent)
chain: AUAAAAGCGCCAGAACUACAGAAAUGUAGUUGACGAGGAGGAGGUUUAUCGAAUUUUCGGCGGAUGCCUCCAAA

Variants of: B1
Method notes: self-cleavage kobs at 40 uM GlcN6P; higher = faster cleavage; RNA array
Measurement setup: with glucosamine-6-phosphate
Fewer inactive variants are shown than the library holds.
Measured self-cleavage kobs at 40 uM GlcN6P values are reported for all entries that follow.

Reference set, count: 6
A12U G29A = 0.00084 s⁻¹
U55C G62A = < 1e-05 s⁻¹
U47A C68U = 7.13e-05 s⁻¹
A15U G43A G44U G62A = < 1e-05 s⁻¹
A53U C67A = 0.000214 s⁻¹
G35A G43U = < 1e-05 s⁻¹

Exercise: Using the record for C11A A14G A52C G63A , report its self-cleavage kobs at 40 uM GlcN6P.
Solution: < 1e-05 s⁻¹

Exercise: Using the record for A36C U54C A64U C67G , report its self-cleavage kobs at 40 uM GlcN6P.
Solution: < 1e-05 s⁻¹

Exercise: Using the record for G40A U55G , report its self-cleavage kobs at 40 uM GlcN6P.
Solution: 0.000131 s⁻¹

Exercise: Using the record for G13C U47G , report its self-cleavage kobs at 40 uM GlcN6P.
Solution: < 1e-05 s⁻¹

Exercise: Using the record for A15G A64G , report its self-cleavage kobs at 40 uM GlcN6P.
Solution: 0.000819 s⁻¹

Exercise: Using the record for A14U A48C G51C U65G , report its self-cleavage kobs at 40 uM GlcN6P.
Solution: < 1e-05 s⁻¹

Exercise: Using the record for A33C G60U , report its self-cleavage kobs at 40 uM GlcN6P.
Solution: < 1e-05 s⁻¹

Exercise: Using the record for A33G G59C , report its self-cleavage kobs at 40 uM GlcN6P.
Solution: < 1e-05 s⁻¹

Exercise: Using the record for A12C G43C , report its self-cleavage kobs at 40 uM GlcN6P.
Solution: < 1e-05 s⁻¹

Exercise: Using the record for G9U C67G , report its self-cleavage kobs at 40 uM GlcN6P.
Solution: < 1e-05 s⁻¹

Exercise: Using the record for A6C G40U , report its self-cleavage kobs at 40 uM GlcN6P.
Solution: < 1e-05 s⁻¹

Exercise: Using the record for C10U U31G G40U , report its self-cleavage kobs at 40 uM GlcN6P.
Solution: < 1e-05 s⁻¹

Exercise: Using the record for G7C G40C U54G G62A , report its self-cleavage kobs at 40 uM GlcN6P.
Solution: < 1e-05 s⁻¹

Exercise: Using the record for C8G C34U U55G , report its self-cleavage kobs at 40 uM GlcN6P.
Solution: < 1e-05 s⁻¹

Exercise: Using the record for G41A G60U , report its self-cleavage kobs at 40 uM GlcN6P.
Solution: < 1e-05 s⁻¹
